target: STING (Homo sapiens, UniProt Q86WV6, G230A/H232R/R293Q/R71H); test: STING reporter assay in THP1-Dual KO-IFNAR2 cells (2′3′cGAMP stimulation, luciferase reporter); settings: 15 μM 2′3′cGAMP stimulation, 24 h, read-out: Pharmaron, THP1_IFNAR2 STING 24 h Luci Normalized: GeoMean EC50
Sequence (Q86WV6 whole entry R71H/G230A/H232R/R293Q): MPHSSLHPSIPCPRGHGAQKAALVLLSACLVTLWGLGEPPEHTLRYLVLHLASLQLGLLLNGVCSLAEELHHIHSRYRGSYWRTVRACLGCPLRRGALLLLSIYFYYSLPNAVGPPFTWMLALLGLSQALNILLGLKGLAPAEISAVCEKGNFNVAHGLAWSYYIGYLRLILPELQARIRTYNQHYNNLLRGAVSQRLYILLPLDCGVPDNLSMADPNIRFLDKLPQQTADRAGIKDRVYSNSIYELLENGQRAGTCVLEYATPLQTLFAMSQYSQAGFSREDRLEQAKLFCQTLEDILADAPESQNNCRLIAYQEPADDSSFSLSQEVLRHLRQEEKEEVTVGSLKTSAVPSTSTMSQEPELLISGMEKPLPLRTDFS
value kind: EC50

>>> value_measured("CC1(C)CC1C(=O)Nc1c[nH]c2ccc(OCCc3ccc(C(F)(F)F)cc3)cc12 (stereo not shown)")
"40 to 200 nM"
>>> value_measured("CC(=O)Nc1c[nH]c2ccc(CCOc3ccc(OCC(F)(F)F)cc3)cc12")
"40 to 200 nM"

Given the compound CC1(C(=O)Nc2c[nH]c3ccc(OCc4ccc(C(F)(F)F)cc4)cc23)CN(CC(F)F)C1 , what is its reported EC50?
200 to 1000 nM

Given the compound O=C(Nc1c[nH]c2ccc(OCCc3ccc(C(F)(F)F)cc3)cc12)C1CC(F)C1 (stereo not shown) , what is its reported EC50?
40 to 200 nM

====

Recorded measurements of pEC50, one per entry
molecular target: STING (Homo sapiens, UniProt Q86WV6, G230A/H232R/R293Q/R71H); test: STING reporter assay in THP1-Dual KO-IFNAR2 cells (2′3′cGAMP stimulation, luciferase reporter); type: cell-based; settings: 15 μM 2′3′cGAMP stimulation, 24 h, read-out: Pharmaron, THP1_IFNAR2 STING 24 h Luci Normalized: GeoMean EC50
pEC50: −log10 of the molar value.

# get_value(readout= pEC50, system= STING (Homo sapiens, UniProt Q86WV6, G230A/H232R/R293Q/R71H)) for CC(=O)Nc1c[nH]c2ccc(CCOc3ccc(OC(F)(F)F)nc3)cc12
6.00 to 6.70

# get_value(readout= pEC50, system= STING (Homo sapiens, UniProt Q86WV6, G230A/H232R/R293Q/R71H)) for CC(=O)Nc1c[nH]c2ccc(CCOc3cccnc3C(F)(F)F)cc12
4.00 to 5.30

# get_value(readout= pEC50, system= STING (Homo sapiens, UniProt Q86WV6, G230A/H232R/R293Q/R71H)) for O=C(Nc1c[nH]c2ccc(O[C@H]3C[C@H](c4ccc(C(F)(F)F)cc4)C3)cc12)C1(F)CC1
6.00 to 6.70

# get_value(readout= pEC50, system= STING (Homo sapiens, UniProt Q86WV6, G230A/H232R/R293Q/R71H)) for COCCN1CC(C(=O)Nc2c[nH]c3ccc(OCCc4ccc(C(F)(F)F)cc4)cc23)C1
6.00 to 6.70

# get_value(readout= pEC50, system= STING (Homo sapiens, UniProt Q86WV6, G230A/H232R/R293Q/R71H)) for O=C(Nc1c[nH]c2ccc(/C=C/Cc3ccc(C(F)(F)F)cc3)cc12)C1CCC1
6.00 to 6.70

# get_value(readout= pEC50, system= STING (Homo sapiens, UniProt Q86WV6, G230A/H232R/R293Q/R71H)) for CCC(=O)Nc1c[nH]c2ccc(COc3ccc(C)cc3)cc12
6.00 to 6.70

# get_value(readout= pEC50, system= STING (Homo sapiens, UniProt Q86WV6, G230A/H232R/R293Q/R71H)) for O=C(Nc1c[nH]c2ccc(OCCc3ccc(C(F)(F)F)cc3)cc12)C1CN(CC(F)F)C1
6.70 to 7.40

# get_value(readout= pEC50, system= STING (Homo sapiens, UniProt Q86WV6, G230A/H232R/R293Q/R71H)) for O=C(Nc1c[nH]c2ccc(OCC[C@@H]3C[C@@H]4CN(CC(F)(F)F)C[C@@H]4C3)cc12)C1CC1(F)F (stereo partly shown)
6.00 to 6.70

# get_value(readout= pEC50, system= STING (Homo sapiens, UniProt Q86WV6, G230A/H232R/R293Q/R71H)) for CC(=O)Nc1c[nH]c2ccc(OCc3ccc(C(F)(F)F)cc3)cc12
6.00 to 6.70

# get_value(readout= pEC50, system= STING (Homo sapiens, UniProt Q86WV6, G230A/H232R/R293Q/R71H)) for CC(=O)Nc1c[nH]c2ccc(CCOc3ccnc(C4CC4)c3)cc12
4.00 to 5.30

# get_value(readout= pEC50, system= STING (Homo sapiens, UniProt Q86WV6, G230A/H232R/R293Q/R71H)) for CCC(=O)Nc1c[nH]c2ccc(Cc3cc(C)ccc3O)cc12
4.00 to 5.30

# get_value(readout= pEC50, system= STING (Homo sapiens, UniProt Q86WV6, G230A/H232R/R293Q/R71H)) for CC(=O)Nc1c[nH]c2ccc(CCOc3ccc(Cl)c(Cl)c3)cc12
6.00 to 6.70

# get_value(readout= pEC50, system= STING (Homo sapiens, UniProt Q86WV6, G230A/H232R/R293Q/R71H)) for CC(=O)Nc1c[nH]c2ccc(CCOc3ccc(Cl)nc3C)cc12
4.00 to 5.30

# get_value(readout= pEC50, system= STING (Homo sapiens, UniProt Q86WV6, G230A/H232R/R293Q/R71H)) for CC(C)(C)CC(=O)Nc1c[nH]c2ccc(O[C@H]3C[C@@H](c4ccc(C(F)(F)F)cc4)C3)cc12
6.70 to 7.40

# get_value(readout= pEC50, system= STING (Homo sapiens, UniProt Q86WV6, G230A/H232R/R293Q/R71H)) for CC1(C(=O)Nc2c[nH]c3ccc(OC[C@@H]4C[C@H]5CC[C@@H](C4)N5CC(F)(F)F)cc23)COC1
5.30 to 6.00

# get_value(readout= pEC50, system= STING (Homo sapiens, UniProt Q86WV6, G230A/H232R/R293Q/R71H)) for CC(=O)Nc1c[nH]c2ccc(OCCc3ccc(C(F)(F)F)cc3)cc12
6.70 to 7.40

# get_value(readout= pEC50, system= STING (Homo sapiens, UniProt Q86WV6, G230A/H232R/R293Q/R71H)) for CN1CC(C(=O)Nc2c[nH]c3ccc(OCC[C@@H]4C[C@@H]5CN(CC(F)(F)F)C[C@@H]5C4)cc23)C1
4.00 to 5.30

# get_value(readout= pEC50, system= STING (Homo sapiens, UniProt Q86WV6, G230A/H232R/R293Q/R71H)) for CC(=O)Nc1c[nH]c2ccc(CCOc3ccc(CC(F)(F)F)cc3)cc12
6.70 to 7.40

# get_value(readout= pEC50, system= STING (Homo sapiens, UniProt Q86WV6, G230A/H232R/R293Q/R71H)) for CC(=O)Nc1c[nH]c2ccc(OCCc3cnc(N4CCC(F)(F)CC4)c(F)c3)cc12
6.70 to 7.40

# get_value(readout= pEC50, system= STING (Homo sapiens, UniProt Q86WV6, G230A/H232R/R293Q/R71H)) for CC1(F)CC(C(=O)Nc2c[nH]c3ccc(OCC[C@@H]4C[C@@H]5CN(CC(F)(F)F)C[C@@H]5C4)cc23)C1 (stereo partly shown)
6.00 to 6.70

# get_value(readout= pEC50, system= STING (Homo sapiens, UniProt Q86WV6, G230A/H232R/R293Q/R71H)) for O=C(Nc1c[nH]c2ccc(CC(O)Cc3ccc(C(F)(F)F)cc3)cc12)C1CC1 (single isomer, unassigned) [Compound 201]
6.00 to 6.70

# get_value(readout= pEC50, system= STING (Homo sapiens, UniProt Q86WV6, G230A/H232R/R293Q/R71H)) for C[C@]1(C(=O)Nc2c[nH]c3ccc(OCC[C@@H]4C[C@@H]5CN(CC(F)(F)F)C[C@@H]5C4)cc23)C[C@@H](O)C1
6.00 to 6.70

# get_value(readout= pEC50, system= STING (Homo sapiens, UniProt Q86WV6, G230A/H232R/R293Q/R71H)) for O=C(Nc1c[nH]c2ccc(OCCc3ccc(C(F)(F)F)cc3)cc12)C1CN(CC(F)(F)F)C1
6.70 to 7.40

# get_value(readout= pEC50, system= STING (Homo sapiens, UniProt Q86WV6, G230A/H232R/R293Q/R71H)) for CC1(C(=O)Nc2c[nH]c3ccc(CCOc4ccc(C(F)(F)F)cc4)cc23)CCOC1 (stereo not shown)
6.00 to 6.70

# get_value(readout= pEC50, system= STING (Homo sapiens, UniProt Q86WV6, G230A/H232R/R293Q/R71H)) for C[C@]1(C(=O)Nc2c[nH]c3ccc(OCC[C@@H]4C[C@@H]5CN(CC(F)(F)F)C[C@@H]5C4)cc23)C[C@@H](CO)C1
6.00 to 6.70

# get_value(readout= pEC50, system= STING (Homo sapiens, UniProt Q86WV6, G230A/H232R/R293Q/R71H)) for CC(=O)Nc1c[nH]c2ccc(CCOc3ccc(C4(C)CCN(CC(F)(F)F)CC4)cc3)cc12
6.00 to 6.70

# get_value(readout= pEC50, system= STING (Homo sapiens, UniProt Q86WV6, G230A/H232R/R293Q/R71H)) for O=C(Nc1c[nH]c2ccc(O[C@H]3C[C@@H](c4ccc(C(F)(F)F)cc4)C3)cc12)C1CC(O)C1 (stereo partly shown)
6.00 to 6.70

# get_value(readout= pEC50, system= STING (Homo sapiens, UniProt Q86WV6, G230A/H232R/R293Q/R71H)) for CC(=O)Nc1c[nH]c2ccc(OCC[C@@H]3[C@H]4CN(CC(F)(F)F)C[C@@H]34)cc12
6.00 to 6.70
